- test-system: AQ STING (G230A-R293Q) (Homo sapiens, UniProt Q86WV6, G230A/H232R/R293Q)
- Construct: truncated human WT STING or AQ STING (amino acid residues 140-343); 8xHis (N, cleaved yes); SUMO (N, cleaved yes); made in house; host or cells: E. coli Rosetta-gami B (DE3)
- Sequence (Q86WV6 140-343 G230A/H232R/R293Q): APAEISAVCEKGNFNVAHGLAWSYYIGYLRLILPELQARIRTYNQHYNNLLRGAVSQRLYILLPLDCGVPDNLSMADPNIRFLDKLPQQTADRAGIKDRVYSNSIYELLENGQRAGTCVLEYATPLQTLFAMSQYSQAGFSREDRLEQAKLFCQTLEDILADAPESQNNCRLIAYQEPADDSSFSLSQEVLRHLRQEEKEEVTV
- assay-explanation: Differential Scanning Fluorimetry with AQ STING
- Format: binding
- condition-set: thermal shift vs STING apoprotein; 150 μM CDN; 0.1 mg/ml truncated human AQ STING; SYPRO Orange; read-out: DSF ΔTm (° C.) AQ STING
measurement-label: ΔTm at 150 µM (°C)

Solved entries:
Nc1nc2c(ncn2[C@@H]2O[C@@H]3OCP(=O)(O)O[C@H]4[C@H](O)[C@H](n5cnc6c(N)ncnc65)O[C@@H]4COP(=O)(O)OC2C3O)c(=O)[nH]1 (some centres unmarked) ... 25.3
Nc1nc2c(ncn2[C@@H]2O[C@@H]3OCP(=O)(O)O[C@H]4[C@@H](F)[C@H](n5cnc6c(N)nc(F)nc65)O[C@@H]4COP(=O)(O)O[C@@H]2[C@@H]3O)c(=O)[nH]1 ... 19.9

P: Nc1nc2c(ncn2[C@@H]2O[C@@H]3OCP(=O)(O)OC4C[C@H](n5cnc6c(N)nc(Cl)nc65)O[C@@H]4COP(=O)(O)OC2C3O)c(=O)[nH]1 (some centres unmarked)
Q: Nc1ncnc2c1ncn2[C@@H]1O[C@@H]2COP(=O)(O)O[C@@H]3[C@H](O)[C@@H](COCP(=O)(O)O[C@H]2[C@H]1F)O[C@H]3n1cnc2c(N)ncnc21
Input line: Look at P and Q . Which one has the lower recorded ΔTm at 150 µM number? Identify your selection by its label.
Output line: Q

This collection of values is drawn from patent US11203610B2.
